test.method.notes: qHTS assay to test for compound auto fluorescence at 590 nm (red) in HEK293 cells (AID 720679)
condition.info: red autofluorescence 540/590 nm; series mostly up to 91.3 µM
Calls of active or inactive are those of the source. Calls come from the whole dose curve; as a rule, active = well fitted curve in the direction sought with a large enough effect in the repeat runs; inconclusive = weak or mixed curves; inactive = flat fitted curve, though single readings scatter.
experimental.endpoint: fluorescence, % of fluorescent control

[
  {
    "compound": "O=S(=O)(c1ccccc1)c1ccccc1",
    "experimental.endpoint": "fluorescence, % of fluorescent control",
    "value.observed": "inactive"
  },
  {
    "compound": "CCOP(=S)(OCC)Oc1ccc(S(C)=O)cc1 (centres undefined)",
    "experimental.endpoint": "fluorescence, % of fluorescent control",
    "value.observed": "inactive"
  },
  {
    "compound": "C[C@@H]1C[C@@H]([C@H](O)CC2CC(=O)NC(=O)C2)C(=O)[C@@H](C)C1",
    "experimental.endpoint": "fluorescence, % of fluorescent control",
    "value.observed": "inactive"
  },
  {
    "compound": "CCOC(=O)NC(O)C(Cl)(Cl)Cl (centres undefined)",
    "experimental.endpoint": "fluorescence, % of fluorescent control",
    "value.observed": "inactive"
  },
  {
    "compound": "CC1(C)CC(=O)CC(C)(C)N1[O]",
    "experimental.endpoint": "fluorescence, % of fluorescent control",
    "value.observed": "inactive"
  }
]

Next item in the queue.
Given the entry CCC1(C2=NCCN2)Cc2ccccc2O1 (centres undefined) , report its measured fluorescence, % of fluorescent control. inactive

* * *

test.method.notes: qHTS assay to identify small molecule agonists of the farnesoid-X-receptor (FXR) signaling pathway - cell viability counter screen (AID 743218); note: nearly all actives have a fitted effect of over 45% in size
condition.info: FXR-bla HEK293T viability, CellTiter-Glo luminescence, 16 h; series mostly up to 62.6 µM
From the text: U.S. Tox21 Program National Center for Advancing Translational Sciences [NCATS] NIH Chemical Genomics Center [NCGC] U.S. Environmental Protection Agency [EPA] National Institutes of Environmental Health Sciences [NIEHS] National Toxicology Program [NTP] U.S. Food and Drug Administration [FDA] Tox21 Assay Overview: The farnesoid-X-receptor (FXR), a nuclear hormone receptor, is highly expressed in liver, intestine, kidney and adrenal cortex. […]
Inconclusive results are not listed. Calls of active or inactive are those of the source. Calls come from the whole dose curve; as a rule, active = well fitted cell-killing curve with a large enough effect in the repeat runs; inconclusive = weak or mixed curves, or effect the other way; inactive = no such curve, though single readings can be large or run the other way.
experimental.endpoint: outcome

[
  {
    "molecule": "C[C@H]1[C@@H]2Cc3ccc(O)cc3[C@@]1(C)CCN2C",
    "outcome": "inactive"
  },
  {
    "molecule": "FC(F)OC(F)(F)C(F)Cl (stereo not drawn)",
    "outcome": "inactive"
  },
  {
    "molecule": "Nc1ccc2c(c1)Cc1ccccc1-2",
    "outcome": "inactive"
  },
  {
    "molecule": "C=C(C)C(=O)OCCCCOC(=O)C(=C)C",
    "outcome": "inactive"
  },
  {
    "molecule": "NC(=O)CF",
    "outcome": "inactive"
  },
  {
    "molecule": "CC(C)OC(=O)Cc1ccccc1",
    "outcome": "inactive"
  }
]

Given the entry O=C(N[C@H]1CN2CCC1CC2)c1ccc2c(c1)OCCO2 , report its measured outcome. inactive

Given the entry COc1ccc(C(O)(c2cncnc2)C2CC2)cc1 (stereo not drawn) , report its measured outcome. inactive

Given the entry CCOP(=S)(S)OCC , report its measured outcome. inactive

Given the entry CC(C)(C)c1ccc(CCOc2ncnc3ccccc23)cc1 , report its measured outcome. inactive

* * *

test.method.notes: qHTS assay to identify small molecule agonists of the RXR signaling pathway - cell viability counter screen (AID 1159529);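 note: HEK 293T cells carrying an RXR-alpha UAS beta-lactamase reporter; nearly all actives have a fitted effect of over 50% in size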
condition.info: RXR-alpha-bla HEK293T viability, CellTiter-Glo, 16 h; series mostly up to 76.8 µM
Records with an inconclusive call do not appear. Active and inactive are the calls of the source. The call rests on the fitted dose curve; in most records, active means well fitted cell-killing curve with a large enough effect in the repeat runs; inconclusive means weak or mixed curves, or effect the other way; inactive means no such curve, though single readings can be large or run the other way.
experimental.endpoint: activity change, negative = cytotoxicity

# example entries with known answers
[
  {
    "compound": "CCCN(CCOc1c(Cl)cc(Cl)cc1Cl)C(=O)n1ccnc1",
    "activity change, negative = cytotoxicity": "inactive"
  },
  {
    "compound": "C[N+](C)(C)CCOC(=O)C(O)(c1ccccc1)c1ccccc1",
    "activity change, negative = cytotoxicity": "inactive"
  },
  {
    "compound": "C=CC(=O)OCC",
    "activity change, negative = cytotoxicity": "inactive"
  },
  {
    "compound": "CCCCCCCCP(=O)(O)O",
    "activity change, negative = cytotoxicity": "inactive"
  },
  {
    "compound": "CC(C)(C)NCC(O)c1cc(Cl)c(N)c(C(F)(F)F)c1 (stereo not given)",
    "activity change, negative = cytotoxicity": "inactive"
  }
]

Given the entry Nc1cccc2ccccc12 , report its measured activity change, negative = cytotoxicity. inactive

Given the entry O=C(O)c1ccc(=O)[nH]c1 , report its measured activity change, negative = cytotoxicity. inactive

Given the entry CC(C)c1ccc(NC(=O)N(C)C)cc1 , report its measured activity change, negative = cytotoxicity. inactive

Given the entry C[C@H]1[C@@H]2Cc3ccc(O)cc3[C@@]1(C)CCN2C , report its measured activity change, negative = cytotoxicity. inactive

* * *

test.method.notes: qHTS assay for small molecule agonists of the p53 signaling pathway - cell viability (AID 651633);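 note: p53RE-bla HCT reporter cells with a stable beta-lactamase p53 reporter; nearly all actives have a fitted effect of over 30% in size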
condition.info: p53RE-bla HCT-116 viability, ATP luminescence, 16 h; series mostly up to 83.3 µM
Results filed as inconclusive are left out. The source made the active and inactive calls. The call rests on the fitted dose curve.
experimental.endpoint: outcome

# example entries with known answers
[
  {
    "molecule": "CC(Oc1cc(Cl)c(Cl)cc1Cl)C(=O)O (stereo not drawn)",
    "outcome": "inactive"
  },
  {
    "molecule": "CCCC(C)(COC(N)=O)COC(=O)NC(C)C (stereo not drawn)",
    "outcome": "inactive"
  },
  {
    "molecule": "COC1=CC(=O)O[C@@H](/C=C/c2ccc3c(c2)OCO3)C1",
    "outcome": "inactive"
  },
  {
    "molecule": "COCc1cnc(C2=NC(C)(C(C)C)C(=O)N2)c(C(=O)O)c1 (stereo not drawn)",
    "outcome": "inactive"
  }
]

Given the entry Cc1ccc2c(C)cccc2c1 , report its measured outcome. inactive

* * *

test.method.notes: qHTS assay to identify small molecule agonists of the sonic hedgehog signaling (Shh) pathway - cell viability counter screen (AID 1259366); note: nearly all actives have a fitted effect of over 50% in size
condition.info: NIH/3T3 Gli1-Luc viability, CellTiter-Fluor, 24 h; series mostly up to 92.4 µM
Records with an inconclusive call do not appear. The source made the active and inactive calls. Calls come from the whole dose curve; as a rule, active = well fitted cell-killing curve with a large enough effect in the repeat runs; inconclusive = weak or mixed curves, or effect the other way; inactive = flat fitted curve, though single readings scatter.
Field 'call' accepts TRUE = active, FALSE = inactive

// outcome(item) with item = O=C(O)c1cc(Cl)ccc1Cl FALSE

// outcome(item) with item = CN(C1CCCCC1)C1CCCCC1 FALSE

// outcome(item) with item = N#CC(C#N)=Cc1ccc(O)c(O)c1 FALSE

// outcome(item) with item = C1CCNCC1 FALSE

// outcome(item) with item = C=CCN1C[C@H](C)N([C@H](c2ccc(C(=O)N(CC)CC)cc2)c2cccc(OC)c2)C[C@H]1C FALSE

// outcome(item) with item = NC(=S)c1c(Cl)cccc1Cl FALSE

// outcome(item) with item = O=C(NCNC(=O)NC1C(=O)NC(=O)N1CO)NC1C(=O)NC(=O)N1CO (stereo not given) FALSE

// outcome(item) with item = CCOC(=O)NC(O)C(Cl)(Cl)Cl (stereo not given) FALSE

// outcome(item) with item = COC1CC(=C(c2cccs2)c2cccs2)C[N+](C)(C)C1 (stereo not given) FALSE

// outcome(item) with item = CCC[N+](CCC)(CCC)CCC FALSE

// outcome(item) with item = C=CC(=O)NC(C)(C)CC(C)=O FALSE

// outcome(item) with item = CC(Oc1cc(Cl)c(Cl)cc1Cl)C(=O)O (stereo not given) FALSE

// outcome(item) with item = O=C(O)C(F)(F)C(F)(F)C(F)(F)C(F)(F)C(F)(F)F FALSE

// outcome(item) with item = Nc1cccc2ccccc12 FALSE

// outcome(item) with item = CCCCC(CC)CO[N+](=O)[O-] (stereo not given) FALSE

// outcome(item) with item = O=C=NC1CCCCC1 FALSE

// outcome(item) with item = O=C(Cc1ccccc1)OCCc1ccccc1 FALSE

// outcome(item) with item = C=CCSSCC=C FALSE

// outcome(item) with item = C[Si](Cn1cncn1)(c1ccc(F)cc1)c1ccc(F)cc1 FALSE

// outcome(item) with item = NP(N)(=O)NC(=O)c1ccc(F)cc1 FALSE

// outcome(item) with item = CCCC[N+](CCCC)(CCCC)CCCC FALSE

// outcome(item) with item = CCCCCl FALSE

// outcome(item) with item = CCCCCCCCP(=O)(O)O FALSE

// outcome(item) with item = Cc1nc2ccccc2c(=O)n1-c1ccccc1Cl TRUE

// outcome(item) with item = O=C([O-])c1ccccn1.O=C([O-])c1ccccn1.O=C([O-])c1ccccn1.[Cr+3] FALSE

// outcome(item) with item = O=C(O)C(F)(F)C(F)(F)C(F)(F)C(F)(F)C(F)(F)C(F)(F)C(F)(F)C(F)(F)F FALSE

// outcome(item) with item = CCCCCCCCCCCCN(C)C FALSE

// outcome(item) with item = Nc1ccccc1C(=O)OCCc1ccccc1 FALSE

// outcome(item) with item = CCC(C)(C)c1ccc(O)c(C(C)(C)CC)c1 FALSE

// outcome(item) with item = CC1(C)CC(=O)CC(C)(C)N1[O] FALSE

// outcome(item) with item = CC(O)CN1CCN(CC(=O)[O-])CCN(CC(=O)[O-])CCN(CC(=O)[O-])CC1.[Gd+3] (stereo not given) FALSE

// outcome(item) with item = C1CS1 FALSE

// outcome(item) with item = Cc1cnc(C2=NC(C)(C(C)C)C(=O)N2)c(C(=O)O)c1 (stereo not given) FALSE

// outcome(item) with item = C[N+]1(CCF)[C@@H]2CC[C@H]1CC(OC(=O)C(O)(c1ccccc1)c1ccccc1)C2 (stereo not given in full) FALSE

// outcome(item) with item = CCOP(=S)(S)OCC FALSE

// outcome(item) with item = CC(C)(C)c1ccc(CCOc2ncnc3ccccc23)cc1 FALSE

// outcome(item) with item = CON(C)C(=O)Nc1ccc(Cl)cc1 FALSE

// outcome(item) with item = CCCSP(=S)(OCC)Oc1ccc(SC)cc1 (stereo not given) FALSE

// outcome(item) with item = Cc1cccc(C)c1NC1=NCCCS1 FALSE

// outcome(item) with item = COP(=O)(OC)OC(Br)C(Cl)(Cl)Br (stereo not given) FALSE

// outcome(item) with item = O=C(Cc1ccccc1)c1ccccc1 FALSE

// outcome(item) with item = CCOC(C(=O)OCCN(C)C)(c1ccccc1)c1ccccc1 FALSE

// outcome(item) with item = c1ccc2c(c1)-c1cccc3cccc-2c13 FALSE

// outcome(item) with item = CC[N+]1(CCOC(=O)C(O)(c2ccccc2)c2ccccc2)CCCCC1 FALSE

// outcome(item) with item = CC(C)(c1ccccc1)c1cc(-n2nc3ccccc3n2)c(O)c(C(C)(C)c2ccccc2)c1 FALSE

// outcome(item) with item = COc1cc(CC(C)N)c(OC)cc1Br (stereo not given) FALSE

// outcome(item) with item = ClCc1ccccc1Cl FALSE

// outcome(item) with item = CCOP(=S)(OCC)SCSc1cc(Cl)ccc1Cl FALSE

// outcome(item) with item = CCOC(=O)c1cn2nc(OP(=S)(OCC)OCC)cc2nc1C FALSE

// outcome(item) with item = CN[C@@H](C)[C@H](O)c1ccccc1 FALSE
